Reported pIC50 is given for each of the following binders.
Molecular target: rh integrin α4β7 (R&D Systems #5397-A30) (human) (UniProt P13612)
Assay: competition ELISA vs MAdCAM-1
pIC50: −log10 of the molar value. Bridge positions count the residues as written; N and C are the ends. Square brackets hold non-standard residues; d marks the D form. Bip = N[C@@H](Cc1ccc(-c2ccccc2)cc1)C(=O)O; 2Nal = N[C@@H](Cc1ccc2ccccc2c1)C(=O)O; d1Nal = N[C@H](Cc1cccc2ccccc12)C(=O)O; d2Nal = N[C@H](Cc1ccc2ccccc2c1)C(=O)O; NMeR = CN[C@@H](CCCNC(=N)N)C(=O)O; hPhe = N[C@@H](CCc1ccccc1)C(=O)O; β3hE = N[C@@H](CCC(=O)O)CC(=O)O; NMeK = CN[C@@H](CCCCN)C(=O)O; Pen = CC(C)(S)[C@H](N)C(=O)O; dNMeK = CN[C@H](CCCCN)C(=O)O

Recorded results for 5 binders are shown here.
>>> value_observed("Ac-[Pen][NMeR]SDTL[Pen][Bip][β3hE][NMeK]-NH2 (disulfide 1-7 (inferred); also: dimer via DIG linker) [SEQ ID NO: 150]")
"> 8.00"
>>> value_observed("Ac-[Pen][NMeR]SDTL[Pen][d2Nal]E[dK]-NH2 (disulfide 1-7; SMILES CC(=O)N[C@@H]1C(=O)N(C)[C@@H](CCCNC(=N)N)C(=O)N[C@@H](CO)C(=O)N[C@@H](CC(=O)O)C(=O)N[C@@H]([C@@H](C)O)C(=O)N[C@@H](CC(C)C)C(=O)N[C@H](C(=O)N[C@H](Cc2ccc3ccccc3c2)C(=O)N[C@@H](CCC(=O)O)C(=O)N[C@H](CCCCN)C(N)=O)C(C)(C)SSC1(C)C) [SEQ ID NO: 11]")
"< 7.60"
>>> value_observed("Ac-[Pen][NMeR]SDTL[Pen][2Nal]E[dNMeK]-NH2 (disulfide 1-7 (inferred)) [SEQ ID NO: 15]")
"> 8.00"
>>> value_observed("Ac-[Pen][NMeR]SDTL[Pen][2Nal][hPhe][dK]-NH2 (disulfide 1-7; SMILES CC(=O)N[C@@H]1C(=O)N(C)[C@@H](CCCNC(=N)N)C(=O)N[C@@H](CO)C(=O)N[C@@H](CC(=O)O)C(=O)N[C@@H]([C@@H](C)O)C(=O)N[C@@H](CC(C)C)C(=O)N[C@H](C(=O)N[C@@H](Cc2ccc3ccccc3c2)C(=O)N[C@@H](CCc2ccccc2)C(=O)N[C@H](CCCCN)C(N)=O)C(C)(C)SSC1(C)C) [SEQ ID NO: 50]")
"< 8.00"
>>> value_observed("Ac-[Pen][NMeR]SDTL[Pen][2Nal][dE][dNMeK]-NH2 (disulfide 1-7 (inferred)) [SEQ ID NO: 13]")
"< 8.00"

Okay, next one:
State the recorded pIC50 for this entry: Ac-[Pen][NMeR]SDTL[Pen][d1Nal]E[dK]-NH2 (disulfide 1-7; SMILES CC(=O)N[C@@H]1C(=O)N(C)[C@@H](CCCNC(=N)N)C(=O)N[C@@H](CO)C(=O)N[C@@H](CC(=O)O)C(=O)N[C@@H]([C@@H](C)O)C(=O)N[C@@H](CC(C)C)C(=O)N[C@H](C(=O)N[C@H](Cc2cccc3ccccc23)C(=O)N[C@@H](CCC(=O)O)C(=O)N[C@H](CCCCN)C(N)=O)C(C)(C)SSC1(C)C) [SEQ ID NO: 10]
< 8.00
